Target: Ste12 (UniProt P13574)
Sequence (P13574 whole entry): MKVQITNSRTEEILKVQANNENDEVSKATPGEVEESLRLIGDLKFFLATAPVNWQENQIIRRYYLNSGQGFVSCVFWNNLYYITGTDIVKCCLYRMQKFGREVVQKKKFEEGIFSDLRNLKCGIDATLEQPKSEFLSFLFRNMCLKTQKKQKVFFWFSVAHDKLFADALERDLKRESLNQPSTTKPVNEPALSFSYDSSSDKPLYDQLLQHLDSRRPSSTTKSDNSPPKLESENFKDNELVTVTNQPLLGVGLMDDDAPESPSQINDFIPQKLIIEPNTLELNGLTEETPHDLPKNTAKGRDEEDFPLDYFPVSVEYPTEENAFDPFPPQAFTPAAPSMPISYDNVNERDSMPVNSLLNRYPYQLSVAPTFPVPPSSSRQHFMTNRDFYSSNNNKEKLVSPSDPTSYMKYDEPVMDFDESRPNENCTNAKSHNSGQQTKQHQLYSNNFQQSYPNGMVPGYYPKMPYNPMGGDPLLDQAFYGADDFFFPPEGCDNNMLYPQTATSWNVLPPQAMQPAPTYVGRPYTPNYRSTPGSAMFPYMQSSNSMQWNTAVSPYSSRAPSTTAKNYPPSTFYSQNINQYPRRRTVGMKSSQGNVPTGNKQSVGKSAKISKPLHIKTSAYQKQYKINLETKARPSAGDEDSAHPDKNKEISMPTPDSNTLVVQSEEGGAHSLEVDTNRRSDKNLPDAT
Experiment: PBM E-score (8-mer binding enrichment) (E-score (-0.5 to 0.5)); higher = stronger / more preferred TF binding
Conditions: protein concentration: 200 nM; construct: GST-DNA-binding domain
Over roughly 33,000 sequences, “E-score (-0.5 to 0.5)” has its median near -0.01; the highest 2% begin near 0.26. The entries come from a sample that favours the highest values as a whole.
Endpoint name: PBM E-score
Respond using a number only.

Value of measured PBM E-score for the entry AATTCATG : 0.255

Value of measured PBM E-score for the entry ACGCCCCA : 0.239

Value of measured PBM E-score for the entry GGGAAAAA : 0.272

Value of measured PBM E-score for the entry TTGGAAAA : 0.177

Value of measured PBM E-score for the entry CCTTTCAA : -0.0319

Value of measured PBM E-score for the entry GACTCCCC : -0.26

Value of measured PBM E-score for the entry CCGCCCCA : 0.417

Value of measured PBM E-score for the entry CATACCAA : -0.0054

Value of measured PBM E-score for the entry AAAAAGCG : 0.317

Value of measured PBM E-score for the entry GCGGAAAA : 0.253

Value of measured PBM E-score for the entry GGGAAAAC : 0.116

Value of measured PBM E-score for the entry GTCGCGAA : -0.0274

Value of measured PBM E-score for the entry AAAAAGCC : 0.229

Value of measured PBM E-score for the entry TCGGAAAA : 0.275

Value of measured PBM E-score for the entry AGCCCCCA : -0.118

Value of measured PBM E-score for the entry ATGGATTC : 0.186

Value of measured PBM E-score for the entry CGCCAATA : 0.036

Value of measured PBM E-score for the entry CGAAGAAA : 0.195

Value of measured PBM E-score for the entry ACGGAAAA : 0.177

Value of measured PBM E-score for the entry CCGCCCCG : 0.408

Value of measured PBM E-score for the entry CAAAAGCG : 0.14

Value of measured PBM E-score for the entry TGGAAAAA : 0.302

----------
Target: Ste12 (UniProt P13574)
Experiment: PBM E-score (8-mer binding enrichment) (E-score (-0.5 to 0.5)); higher = stronger / more preferred TF binding
Details: protein concentration: 200 nM; construct: GST-DNA-binding domain
Over roughly 33,000 sequences, “E-score (-0.5 to 0.5)” has its median near -0.01; the highest 2% begin near 0.26. The entries come from a sample that favours the highest values as a whole.
Endpoint name: PBM E-score
Respond using a number only.

# PBM E-score measured on Ste12 (UniProt P13574) for item CTGTAACA = 0.268

# PBM E-score measured on Ste12 (UniProt P13574) for item CAATATGA = 0.0995

# PBM E-score measured on Ste12 (UniProt P13574) for item AATTTTAC = 0.251

# PBM E-score measured on Ste12 (UniProt P13574) for item ATGTAACA = 0.288

# PBM E-score measured on Ste12 (UniProt P13574) for item GGTTTGAA = 0.297

# PBM E-score measured on Ste12 (UniProt P13574) for item AAATATTC = 0.14

# PBM E-score measured on Ste12 (UniProt P13574) for item CAACAGCA = 0.021

# PBM E-score measured on Ste12 (UniProt P13574) for item ACTTTGAT = 0.11

# PBM E-score measured on Ste12 (UniProt P13574) for item AAGTAAAC = 0.0949

# PBM E-score measured on Ste12 (UniProt P13574) for item AAATATTA = 0.352

# PBM E-score measured on Ste12 (UniProt P13574) for item CAAACATA = 0.23

# PBM E-score measured on Ste12 (UniProt P13574) for item AGTTTGAA = 0.174

# PBM E-score measured on Ste12 (UniProt P13574) for item CGTTTGAA = 0.265

# PBM E-score measured on Ste12 (UniProt P13574) for item ATATTTAC = 0.219

# PBM E-score measured on Ste12 (UniProt P13574) for item AGTTTTGA = 0.148

# PBM E-score measured on Ste12 (UniProt P13574) for item TGGGCCAA = -0.177

# PBM E-score measured on Ste12 (UniProt P13574) for item GGTTTGAC = -0.0297

# PBM E-score measured on Ste12 (UniProt P13574) for item CGTTTGAC = -0.0236

# PBM E-score measured on Ste12 (UniProt P13574) for item AAGTAAAG = -0.0589

# PBM E-score measured on Ste12 (UniProt P13574) for item CGTTTTGA = 0.275

# PBM E-score measured on Ste12 (UniProt P13574) for item GTGTAACA = 0.319

# PBM E-score measured on Ste12 (UniProt P13574) for item AAGTAAAT = 0.261
